Test system: purified human submaxillary enzyme (X-prolyl dipeptidyl-aminopeptidase)
measurement-notes: Direct photometric assay of substrate hydrolysis with purified human submaxillary enzyme
Assay type: biochemical
measurement-context: pH 7.0, Tris-maleate buffer, mean of duplicate experiments
Peptide text beside a SMILES is read from it. * marks the point of attachment. pNA = O=[N+]([O-])c1ccc(N*)cc1
readout-name: Km (µM)
Field: numeric (µM). Do not append units.

Illustrative cases are given below, each with its answer.
molecule	measured
Cc1ccc(S(=O)(=O)O)cc1.Cc1ccc(S(=O)(=O)O)cc1.N=C(N)NCCC[C@H](N)C(=O)N1CCC[C@H]1C(=O)Nc1ccc([N+](=O)[O-])cc1 [L-arginyl-L-proline p-nitroanilide, ditosylate] (H-Arg-Pro-pNA)	230
NCC(=O)N1CCC[C@H]1C(=O)Nc1ccc([N+](=O)[O-])cc1 [glycyl-L-proline p-nitroanilide, Glycyl-L-proline p-nitroanilide] (H-Gly-Pro-pNA)	330
N[C@@H](CCC(=O)O)C(=O)N1CCC[C@H]1C(=O)Nc1ccc([N+](=O)[O-])cc1 [L-glutamyl-L-proline p-nitroanilide, L-Glutamyl-L-proline p-nitroanilide] (H-Glu-Pro-pNA)	23
C[C@H](N)C(=O)N1CCC[C@H]1C(=O)Nc1ccc([N+](=O)[O-])cc1.Cl [L-alanyl-L-proline p-nitroanilide, hydrochloride] (H-Ala-Pro-pNA)	14
N[C@@H](CC(=O)O)C(=O)N1CCC[C@H]1C(=O)Nc1ccc([N+](=O)[O-])cc1 [L-aspartyl-L-proline p-nitroanilide, L-Aspartyl-L-proline p-nitroanilide] (H-Asp-Pro-pNA)	81

Okay, next one:
IN: Look up Km: Cc1ccc(S(=O)(=O)O)cc1.Cc1ccc(S(=O)(=O)O)cc1.NCCCC[C@H](N)C(=O)N1CCC[C@H]1C(=O)Nc1ccc([N+](=O)[O-])cc1 [L-lysyl-L-proline p-nitroanilide, ditosylate] (H-Lys-Pro-pNA)
OUT: 120

----------
measurement-target: X-prolyl dipeptidyl-aminopeptidase in human serum (Homo sapiens, UniProt P27487)
Construct: Even if crude enzyme such as human serum is used as enzyme source, the activity is accurately measured; from tissue; host or cells: human serum (normal subjects and patients)
Sequence (P27487 39-766 limits assumed): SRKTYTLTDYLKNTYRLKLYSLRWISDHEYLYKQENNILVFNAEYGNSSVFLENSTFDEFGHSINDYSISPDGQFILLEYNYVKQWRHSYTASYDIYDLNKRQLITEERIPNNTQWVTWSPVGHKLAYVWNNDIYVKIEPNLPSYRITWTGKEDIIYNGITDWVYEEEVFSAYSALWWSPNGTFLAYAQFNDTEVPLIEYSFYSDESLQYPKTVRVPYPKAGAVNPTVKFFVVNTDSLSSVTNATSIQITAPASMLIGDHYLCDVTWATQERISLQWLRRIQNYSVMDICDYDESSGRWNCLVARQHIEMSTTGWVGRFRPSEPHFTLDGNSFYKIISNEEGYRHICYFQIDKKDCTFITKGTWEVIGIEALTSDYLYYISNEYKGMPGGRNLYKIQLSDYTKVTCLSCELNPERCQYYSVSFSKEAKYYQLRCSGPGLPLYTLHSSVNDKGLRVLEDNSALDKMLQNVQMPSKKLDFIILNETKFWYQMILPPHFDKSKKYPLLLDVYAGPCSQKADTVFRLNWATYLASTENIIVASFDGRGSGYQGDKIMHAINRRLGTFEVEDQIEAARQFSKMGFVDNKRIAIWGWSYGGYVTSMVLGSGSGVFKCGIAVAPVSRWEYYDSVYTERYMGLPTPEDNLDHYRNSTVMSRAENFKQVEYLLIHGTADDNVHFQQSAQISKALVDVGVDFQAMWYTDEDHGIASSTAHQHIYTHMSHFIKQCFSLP
measurement-notes: Direct photometric assay of substrate hydrolysis (p-nitroaniline liberated, 385 nm) with human serum as enzyme source
Format: biochemical
measurement-context: human sera from patients, Gastric Cancer, 3 cases
Peptide text beside a SMILES is read from it. * marks the point of attachment. pNA = O=[N+]([O-])c1ccc(N*)cc1
readout-name: Enzyme activity (μmole/min/1 serum ± S.E.) (μmole/min/1 serum)
Field: numeric (μmole/min/1 serum). Do not append units.

Illustrative cases are given below, each with its answer.
compound	measurement-target	unit-of-measure	measured
N[C@@H](CC(=O)O)C(=O)N1CCC[C@H]1C(=O)Nc1ccc([N+](=O)[O-])cc1 [L-aspartyl-L-proline p-nitroanilide, L-Aspartyl-L-proline p-nitroanilide] (H-Asp-Pro-pNA)	X-prolyl dipeptidyl-aminopeptidase in human serum (Homo sapiens, UniProt P27487)	μmole/min/1 serum	17.6
N[C@@H](CCC(=O)O)C(=O)N1CCC[C@H]1C(=O)Nc1ccc([N+](=O)[O-])cc1 [L-glutamyl-L-proline p-nitroanilide, L-Glutamyl-L-proline p-nitroanilide] (H-Glu-Pro-pNA)	X-prolyl dipeptidyl-aminopeptidase in human serum (Homo sapiens, UniProt P27487)	μmole/min/1 serum	13.9

Okay, next one:
IN: Look up Enzyme activity (μmole/min/1 serum ± S.E.): Cc1ccc(S(=O)(=O)O)cc1.Cc1ccc(S(=O)(=O)O)cc1.N=C(N)NCCC[C@H](N)C(=O)N1CCC[C@H]1C(=O)Nc1ccc([N+](=O)[O-])cc1 [L-arginyl-L-proline p-nitroanilide] (H-Arg-Pro-pNA)
OUT: 6.0

Values were extracted from patent US4191808A.
